System name: anti-CD28 Fab
Sequence (VH, as listed by the source, chain 1 of 2): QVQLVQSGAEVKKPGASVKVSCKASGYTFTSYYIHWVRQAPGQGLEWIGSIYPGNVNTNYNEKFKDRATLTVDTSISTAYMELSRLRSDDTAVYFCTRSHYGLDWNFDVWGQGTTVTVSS
Sequence (VL, as listed by the source, chain 2 of 2): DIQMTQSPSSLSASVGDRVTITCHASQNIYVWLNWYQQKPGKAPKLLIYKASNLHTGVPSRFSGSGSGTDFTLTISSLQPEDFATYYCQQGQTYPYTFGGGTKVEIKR
Experiment notes: competition ELISA, alanine scan of Peptide-39, Fab binding plate-bound CD28
No end group written: not given here.
Note to self: use TRUE only for IC50 readings below 10 mM; a reading exactly at 10 mM still gets FALSE.

INSERT INTO results (binder, group) VALUES
  ('YCAGHAAQYINKCL (alanine scanning peptide of Peptide-39 (W7A)) [Peptide-62]', 'TRUE'),
  ('YCAGHAWQYANKCL (alanine scanning peptide of Peptide-39 (I10A)) [Peptide-65]', 'FALSE'),
  ('YCAGHAWAYINKCL (alanine scanning peptide of Peptide-39 (Q8A)) [Peptide-63]', 'FALSE'),
  ('YCAGHAWQYINKCA (alanine scanning peptide of Peptide-39 (L14A)) [Peptide-68]', 'FALSE'),
  ('YCAGHAWQYIAKCL (alanine scanning peptide of Peptide-39 (N11A)) [Peptide-66]', 'TRUE'),
  ('YCAGHAWQYINKCL (cysteine pairing not given here; also: biotinylated, site not given here, synthetic peptide) [Peptide-39]', 'FALSE');
